System: HCT-116
assay.details: NCI tumour cell line growth inhibition, 48 h
Active and inactive are the calls of the source. Rule as the data show it: active = GI50 up to about 1.1 µM and inactive = higher.
value.kind: GI50

Consider the reported GI50 for these compounds:
| compound | GI50 |
| --- | --- |
| CCOC(=O)/C(C(=O)c1ccccc1)=C1/NCCN1C | > 100 µM (inactive) |
| CSC1=N/C(=C\c2ccc(C)cc2)C(=O)N1CN1CCOCC1 | 35.7 µM (inactive) |
| O=C1/C(=C/c2ccc(Cl)cc2)N=C(c2ccccc2)N1c1nc2ccccc2s1 | 40.7 µM (inactive) |
| Cc1cc2c(ccc3c(C)cc(=O)oc32)o1 | > 100 µM (inactive) |
| CC1=C(c2ccccc2)C(c2ccccc2)=C(c2ccccc2)C2(c3ccccc3)C(=O)C(C)CN12 (stereo not given) | 45.3 µM (inactive) |
| Cc1nc2nn(C)cc2c(=O)n1/N=C/c1ccccc1 | > 100 µM (inactive) |

Dear colleague, could you please provide GI50 for the compounds listed below?
1. O=C1C=C(Nc2nc(O)cc(C(=O)O)n2)c2ccccc2C1=O
2. COC(=O)C1OC(O[C@H]2CC[C@]3(C)[C@H]4CC=C5[C@@H]6CC(C)(C)CC[C@]6(C(=O)OC)[C@H](O)C[C@@]5(C)[C@]4(C)CC[C@H]3C2(C)C)C(O)C(O)C1O (stereo not given in full)
3. NC1c2c(Cl)sc(Cl)c2C(=O)C1O (stereo not given)
4. N#Cc1cc2cc3c4c(c2oc1=O)CCCN4CCC3
5. COc1ccc2ccnc(Cc3ccc(OCc4ccccc4)c(OC)c3)c2c1

["> 100 µM (inactive)", "4.4 µM (inactive)", "29.2 µM (inactive)", "> 100 µM (inactive)", "16.1 µM (inactive)"]

Dear colleague, could you please provide GI50 for the compounds listed below?
1. CCOC(=O)c1ccc(Nc2cnc3ccc(C(F)(F)F)cc3n2)cc1
2. CCCCCCN(CCCCCC)C1=CC(=O)C(=O)c2ccccc21
3. CC1(C)OP(=O)(c2ccccc2)C=C1Br (stereo not given)
4. CNC(=O)N(CCC#N)CCCN(C(=O)NC)c1ccccc1
5. CCCCn1cnc2c(c(CC#N)nn2-c2ccccc2)c1=N
6. C=C(CCOC)CCC1CCCCC(=C)C1=O (stereo not given)
7. CC(=O)O[C@@H]1[C@H]2[C@@H](OC(=O)c3ccccc3)[C@@H](C)C[C@]2(O)[C@H](OC(C)=O)[C@@]2(C)[C@@H]3CC(C)(C)C(=O)[C@]3(OC(C)=O)C[C@@]12C
8. CCCCOP(=O)(OCCCC)/C(C#N)=C/c1ccc(C)o1

1: 14.8 µM (inactive); 2: 17.5 µM (inactive); 3: > 100 µM (inactive); 4: > 100 µM (inactive); 5: 48.6 µM (inactive); 6: > 100 µM (inactive); 7: > 25 µM (inactive); 8: 36.9 µM (inactive)

----------
Tested on: UACC-62
assay.details: NCI tumour cell line growth inhibition, 48 h
Active and inactive are the calls of the source. Cut-off read from the data, not from the text of the source: active = GI50 up to about 1.1 µM and inactive = higher.
value.kind: GI50

Consider the reported GI50 for these molecules:
| molecule | GI50 |
| --- | --- |
| COc1ccc2c(CCNC(=O)/C=C/c3ccccc3)c(C(C)=O)[nH]c2c1[N+](=O)[O-] | 10.2 µM (inactive) |
| CCOP(=O)(C[S+](C)[O-])O[C@@H]1C[C@H](C)CC[C@H]1C(C)C (some centres not stated) | 2.17 µM (inactive) |
| O=C(N/C(=C/c1cccc([N+](=O)[O-])c1)c1nc2cc(Cl)ccc2[nH]1)c1ccccc1 | 5.4 µM (inactive) |
| O=C(Nc1ccccc1-c1nc2ccccc2[nH]c1=O)c1ccccc1 | 26.1 µM (inactive) |
| Cn1c(=S)[nH]c2sc3c(c2c1=O)CCSC3 | 24.8 µM (inactive) |
| C=C(C)CNCCN | > 100 µM (inactive) |

Dear colleague, could you please provide GI50 for the molecules listed below?
1. N#C/C(N)=C(C#N)/N=C/N
2. O=C1C(Cl)=C(Nc2ccc(S(=O)(=O)Nc3ccccn3)cc2)C(=O)c2ccccc21
3. O=[N+]([O-])/C(C(Cl)=C(Cl)Cl)=C(/Cl)Sc1ccccc1
4. COc1cc(C2c3cc4c(cc3[C@@H](Nc3ccc(C(=O)O)cc3)C3COC(=O)[C@H]23)OCO4)cc(OC)c1O (some centres not stated)
5. Nc1cccc(CCN2CCN(CCCc3ccccc3)CC2)c1

> 100 µM (inactive)
5.6 µM (inactive)
1.8 µM (inactive)
10.6 µM (inactive)
21.8 µM (inactive)

----------
Test system: A549
assay.details: NCI tumour cell line growth inhibition, 48 h
Calls of active or inactive are those of the source. Rule as the data show it: active = GI50 up to about 1.1 µM and inactive = higher.
value.kind: GI50

Consider the reported GI50 for these compounds:
| compound | GI50 |
| --- | --- |
| O=NN1C(c2ccccc2)CC(=NO)CC1c1ccccc1 (stereo unspecified) | > 100 µM (inactive) |
| c1ccc(/N=c2\snc3scc(-c4ccccc4)n23)cc1 | 37.5 µM (inactive) |
| N#Cc1c(-c2ccc(Cl)cc2)c(-c2ccc(Cl)cc2)nn(CCOC(=O)CCC(=O)O)c1=O | 1.31 µM (inactive) |

Dear colleague, could you please provide GI50 for the compounds listed below?
1. NC(=O)c1cnc2sc3ccccc3n2c1=O
2. Cc1[nH]c(O)nc1C(=O)c1ccc(-n2ccnc2)cc1
3. NC(=S)Nc1ccc2c(c1)oc1ccccc12

1. 67.9 µM (inactive)
2. > 100 µM (inactive)
3. > 100 µM (inactive)

----------
Could you please report measured GI50 for the items listed next?
Tested on: NCI-H226
assay.details: NCI tumour cell line growth inhibition, 48 h
The source made the active and inactive calls. Rule as the data show it: active = GI50 up to about 1.1 µM and inactive = higher.

| compound | result |
| --- | --- |
| CCN(CC)Cc1cc(Nc2ccnc3ccc4nn(C)nc4c23)ccc1O | 22.5 µM (inactive) |

Dear colleague, could you please provide GI50 for the compounds listed below?
1. COc1cc(NS(C)(=O)=O)ccc1N1Cc2c[nH]c3ccc4nccc1c4c23
2. C[C@]12CCC3[C@@H](CC[C@@H]4c5nonc5CC[C@]34C)C1C/C(=N/O)C2=O (stereo partly specified)

29 µM (inactive)
> 100 µM (inactive)

----------
System: T47D
assay.details: NCI tumour cell line growth inhibition, 48 h
The source made the active and inactive calls. Rule as the data show it: active = GI50 up to about 1.1 µM and inactive = higher.
Allowed answers: active, inactive

Solved cases (10 shown):
| compound | assigned.category |
| --- | --- |
| COc1ccc(Cc2c(N)[nH]c(=O)n(C)c2=O)cc1 | inactive |
| COc1ccc2c(c1)OCC1=C2Oc2ccccc2C1 | inactive |
| O=C1C=C(Nc2nc(O)cc(C(=O)O)n2)c2ccccc2C1=O | inactive |
| COc1ccc(CC2c3cc(OC)c(OC)c(OC)c3CC[N+]2(C)C)cc1Oc1ccc(CC2c3cc4c(c(OC)c3CCN2C)OCO4)cc1 (configuration not stated) | inactive |
| COC(=O)/C=C/c1cc2c(cc1-c1c(C(=O)O)cc(OC)c(OC)c1OC)OCO2 | inactive |
| COC1=C(OC)C(=O)c2cc(C)c(=O)c(C)cc2C1=O | inactive |
| N#C/C(N)=C(C#N)/N=C/N | inactive |
| CC(=O)O[C@H]1CC[C@H]2[C@@H]3CCc4cc(O)c(I)cc4[C@H]3CC[C@]12C | inactive |
| C[N+](C)(C)c1ncnc2c1ncn2C1CCCCO1 (configuration not stated) | inactive |
| N#Cc1cc2cc3c4c(c2oc1=O)CCCN4CCC3 | inactive |

In the following, a different compound is considered.
Entry Cn1c(=S)[nH]c2sc3c(c2c1=O)CCSC3 : call = ?
inactive

----------
Test system: SF-539
assay.details: NCI tumour cell line growth inhibition, 48 h
Calls of active or inactive are those of the source. No stated cut-off is given here; in the data, active = GI50 up to about 1.1 µM and inactive = higher.
value.kind: GI50

Consider the reported GI50 for these compounds:
| compound | GI50 |
| --- | --- |
| c1ccc(N2N=C3N(c4ccccc4)C2N3c2ccccc2)cc1 | 22.3 µM (inactive) |
| O=[N+]([O-])/C(C(Cl)=C(Cl)Cl)=C(/Cl)Sc1ccccc1 | 1.99 µM (inactive) |

Dear colleague, could you please provide GI50 for the compounds listed below?
1. Cc1cc2c(cc1C)[n+]([O-])c(C(=O)CC(=O)C(=O)Nc1ccccc1C)c(C)[n+]2[O-]
2. COC(=O)[C@H](Cc1ccccc1)NC(=O)N(CCC#N)CCN(C(=O)N[C@@H](Cc1ccccc1)C(=O)OC)c1ccccc1
3. C/C=C/C(O)P1(=O)N(Cc2ccccc2)[C@@H]2CCCC[C@H]2N1Cc1ccccc1 (some centres undefined)
4. CC1(CCC(=O)OC2CCCCC2)OCCO1

1. > 100 µM (inactive)
2. 20.8 µM (inactive)
3. > 25 µM (inactive)
4. > 100 µM (inactive)

----------
Could you please report measured GI50 for the items listed next?
Test system: HOP-92
assay.details: NCI tumour cell line growth inhibition, 48 h
Calls of active or inactive are those of the source. No stated cut-off is given here; in the data, active = GI50 up to about 1.1 µM and inactive = higher.

Consider the reported GI50 for these compounds:
| compound | value.kind | result |
| --- | --- | --- |
| CC(=O)NC1C(OCc2ccccc2)OC(CO)C(O)C1OC(C)C(=O)NC(C(=O)NC(CCC(=O)Nc1ccc2c(c1)CN1C(=O)c3ccccc3C1=N2)C(N)=O)C(C)C (stereo unspecified) | GI50 | > 100 µM (inactive) |
| Cn1c2c(c3ccccc31)CCN(CCN1CCN(c3cccc(Cl)c3)CC1)C2=O | GI50 | 19.9 µM (inactive) |
| CN(C)c1cccc(-c2cc(O)c3cc4c(cc3n2)OCO4)c1 | GI50 | 2.15 µM (inactive) |
| COC1=C(OC)C(=O)c2cc(C)c(=O)c(C)cc2C1=O | GI50 | 16.4 µM (inactive) |
| Cc1cn([C@@H]2C[C@H]2CO)c(=O)[nH]c1=O | GI50 | > 100 µM (inactive) |

Consider the record given below.
Missing value: GI50, HOP-92, entry COC(=O)c1nc(N)nc(O)c1CCCCCc1c(O)nc(N)nc1C(=O)OC . Fill in?
> 50 µM (inactive)

Data provenance: ChEMBL document CHEMBL1201862
